Subject of test: Orexin/Hypocretin receptor type 1 (Homo sapiens)
Test summary: antagonists of human orexin 1 receptor (OX1R) (AID 485270);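 further: 0% = agonist challenge alone and 100% = reference antagonist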
Settings: OX1R-expressing cells, FRET antagonist read-out; at 6.6 µM; hits give high values
Among all 330,000 compounds or so, about 5,800 (1.8%) were called active. What follows is part of a selection rich in actives, with near analogues and random picks from the rest.
# inhibition annotations
Reported property: inhibition (%)

>  <Compound>
COc1ccc(NC(=O)C2CCCN(S(=O)(=O)c3cccc4cccnc34)C2)cc1OC (stereo not given)

>  <Reported property>
inhibition

>  <Experimental result>
22.1

$$$$
>  <Compound>
O=C(O)C1CCCN(S(=O)(=O)c2cccc3cccnc23)C1 (stereo not given)

>  <Reported property>
inhibition

>  <Experimental result>
4.71

$$$$
>  <Compound>
CCOC(=O)C1CCN(c2ccc(C(=O)O)cc2[N+](=O)[O-])CC1

>  <Reported property>
inhibition

>  <Experimental result>
57.8

$$$$
>  <Compound>
Cc1ccc(NC(=O)C2CCCN2S(=O)(=O)c2cccc3cccnc23)c(C)c1 (stereo not given)

>  <Reported property>
inhibition

>  <Experimental result>
21.6

$$$$
>  <Compound>
COc1ccccc1NC(=O)COC(=O)CNC(=O)C1CCCCC1

>  <Reported property>
inhibition

>  <Experimental result>
5.3

$$$$

###

Subject of test: Orexin/Hypocretin receptor type 1 (Homo sapiens)
Test summary: antagonists of human orexin 1 receptor (OX1R) (AID 485270);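 further: 0% = agonist challenge alone and 100% = reference antagonist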
Settings: OX1R-expressing cells, FRET antagonist read-out; at 6.6 µM; hits give high values
Out of some 330,000 compounds screened, about 5,800 (1.8%) were called active. What follows is part of a selection rich in actives, with near analogues and random picks from the rest.

>  <Mol smiles>
COc1ccccc1CNC(=O)c1ccc(Cl)c(S(=O)(=O)N2CCCC2)c1

>  <inhibition (%)>
16.6

$$$$
>  <Mol smiles>
COc1ccc2oc(=O)c(C(=O)N3CCCC3)cc2c1

>  <inhibition (%)>
0.49

$$$$
>  <Mol smiles>
CCCC/C(C)=N/NC(=O)NC1CCCCC1

>  <inhibition (%)>
10.5

$$$$
>  <Mol smiles>
C/C(N)=C(/C#N)C(=O)COC(=O)c1cc(-c2ccccc2)nc2ccc(Br)cc12

>  <inhibition (%)>
8.99

$$$$
>  <Mol smiles>
O=C(/C=C/c1ccc([N+](=O)[O-])o1)NNC(=O)c1ccc(F)cc1

>  <inhibition (%)>
57.8

$$$$
>  <Mol smiles>
COC(=O)c1ccc(CNC(=O)c2ccc(S(=O)(=O)N3CCCCCC3)cc2)cc1

>  <inhibition (%)>
13.9

$$$$
>  <Mol smiles>
COc1ccc(-c2cc3ncccc3cn2)cc1

>  <inhibition (%)>
21.6

$$$$
>  <Mol smiles>
Cc1ccc(NC(=O)c2ccc(Cl)nc2)cc1S(=O)(=O)N1CCOCC1

>  <inhibition (%)>
5.02

$$$$
>  <Mol smiles>
C/C(N)=C(/C#N)C(=O)COC(=O)c1cc(-c2ccc(C)cc2)nc2ccccc12

>  <inhibition (%)>
86.7

$$$$
>  <Mol smiles>
COc1cc(/C=C/C(=O)OCC(=O)NC2CC2)cc(OC)c1OC

>  <inhibition (%)>
3.2

$$$$
>  <Mol smiles>
CCN(CC(=O)NC(C)C)C(=O)c1cc(S(=O)(=O)N2CCCCC2)ccc1N1CCCCC1

>  <inhibition (%)>
4.56

$$$$

###

Subject of test: Orexin/Hypocretin receptor type 1 (Homo sapiens)
Test summary: antagonists of human orexin 1 receptor (OX1R) (AID 485270);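 further: 0% = agonist challenge alone and 100% = reference antagonist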
Settings: OX1R-expressing cells, FRET antagonist read-out; at 6.6 µM; hits give high values
The campaign covered roughly 330,000 compounds. About 5,800 (1.8%) were called active. Shown is part of a subset that was picked to be rich in actives.

>  <Compound>
COc1ccc(C2(c3ccc(OC)cc3)NC(=O)N(CC(=O)Nc3cc(C)on3)C2=O)cc1

>  <Subject of test>
Orexin/Hypocretin receptor type 1 (Homo sapiens)

>  <inhibition>
14% (inactive)

$$$$
>  <Compound>
O=C(CC1SC(N2CCOCC2)=NC1=O)Nc1ccccc1F (configuration not stated)

>  <Subject of test>
Orexin/Hypocretin receptor type 1 (Homo sapiens)

>  <inhibition>
-1.73% (inactive)

$$$$
>  <Compound>
CC(C)(C)NC(=O)CN(C(=O)c1csnn1)c1ccccc1-c1ccccc1

>  <Subject of test>
Orexin/Hypocretin receptor type 1 (Homo sapiens)

>  <inhibition>
67.4% (active)

$$$$
>  <Compound>
Cc1cccc(-n2ncc3c(=O)[nH]c(SCC(=O)Nc4cc(C)on4)nc32)c1

>  <Subject of test>
Orexin/Hypocretin receptor type 1 (Homo sapiens)

>  <inhibition>
10.5% (inactive)

$$$$
>  <Compound>
CC(=O)C[C@H](O)CC(=O)[C@@H]1OC(=O)[C@@H](C)C/C=C\Cc2ccccc21

>  <Subject of test>
Orexin/Hypocretin receptor type 1 (Homo sapiens)

>  <inhibition>
0.77% (inactive)

$$$$
>  <Compound>
CCC(C)(C)NC(=O)C(c1ccccn1)N(C(=O)c1csnn1)c1ccccc1 (configuration not stated)

>  <Subject of test>
Orexin/Hypocretin receptor type 1 (Homo sapiens)

>  <inhibition>
6.1% (inactive)

$$$$
>  <Compound>
NS(=O)(=O)c1ccc(CNC(=O)c2ccc(Cl)cc2[N+](=O)[O-])cc1

>  <Subject of test>
Orexin/Hypocretin receptor type 1 (Homo sapiens)

>  <inhibition>
70.7% (active)

$$$$
>  <Compound>
COc1ccccc1CNC(=O)COC(=O)c1cccs1

>  <Subject of test>
Orexin/Hypocretin receptor type 1 (Homo sapiens)

>  <inhibition>
2.2% (inactive)

$$$$
>  <Compound>
O=C(Nc1cccnc1)c1ccc(Cl)cc1[N+](=O)[O-]

>  <Subject of test>
Orexin/Hypocretin receptor type 1 (Homo sapiens)

>  <inhibition>
22.6% (inactive)

$$$$
>  <Compound>
O=[N+]([O-])c1ccc(NCCCN2CCOCC2)c(Cl)c1

>  <Subject of test>
Orexin/Hypocretin receptor type 1 (Homo sapiens)

>  <inhibition>
10.8% (inactive)

$$$$
>  <Compound>
NS(=O)(=O)c1ccc(CCNC(=O)CNC(=O)Cc2ccccc2)cc1

>  <Subject of test>
Orexin/Hypocretin receptor type 1 (Homo sapiens)

>  <inhibition>
1.42% (inactive)

$$$$
>  <Compound>
COc1ccc(C(=O)NCCc2ccc(S(N)(=O)=O)cc2)cc1OC

>  <Subject of test>
Orexin/Hypocretin receptor type 1 (Homo sapiens)

>  <inhibition>
17.6% (inactive)

$$$$

###

Subject of test: Orexin/Hypocretin receptor type 1 (Homo sapiens)
Test summary: antagonists of human orexin 1 receptor (OX1R) (AID 485270);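 further: 0% = agonist challenge alone and 100% = reference antagonist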
Settings: OX1R-expressing cells, FRET antagonist read-out; at 6.6 µM
Screen size: about 330,000 compounds; about 5,800 (1.8%) were called active. Rule as the data show it: active = inhibition mostly above about 38% (no sharp cut-off); inactive = mostly below about 40%. This is one part of a sample in which actives are shown more often than they occur.
Possible outcomes: 1.0 for active, 0.0 for inactive

>  <Molecule>
Fc1ccccc1/C=N/n1c(-c2cccnc2)n[nH]c1=S

>  <Assigned category>
0.0

$$$$
>  <Molecule>
C=CCNC(=O)c1ccc2c3n(nc2c1)-c1ccc(C)cc1CO3

>  <Assigned category>
1.0

$$$$
>  <Molecule>
CCC1C(=O)c2ccccc2N(C)C1=O (stereo not given)

>  <Assigned category>
0.0

$$$$
>  <Molecule>
Cc1cc(C(=O)OCC(=O)N2C(C)CCCC2C)c2ccccc2n1 (stereo not given)

>  <Assigned category>
0.0

$$$$
>  <Molecule>
COc1ccccc1NC(=O)COC(=O)c1ccccc1SCC(=O)N1CCCC1

>  <Assigned category>
0.0

$$$$
>  <Molecule>
CC(NC(=O)c1ccccc1SCC(=O)N1CCCC1)c1ccccc1 (stereo not given)

>  <Assigned category>
0.0

$$$$
>  <Molecule>
CC(=O)c1cccc(OCC(=O)OCC(=O)Nc2cc(S(=O)(=O)N3CCCCC3)ccc2C)c1

>  <Assigned category>
0.0

$$$$
>  <Molecule>
COc1cc2ccccc2cc1C(=O)Nc1ccc(N2CCOCC2)cc1

>  <Assigned category>
1.0

$$$$
>  <Molecule>
CC(C)NC(=O)Nc1cccc2c1O[C@@H](CN(C)S(=O)(=O)c1ccc(F)cc1)[C@@H](C)CN([C@H](C)CO)C2=O

>  <Assigned category>
0.0

$$$$
>  <Molecule>
COc1ccc(S(=O)(=O)NC(C)c2ccccc2)cc1C(=O)N1CCCCC1 (stereo not given)

>  <Assigned category>
1.0

$$$$
>  <Molecule>
Cc1ccc(C(=O)OCC(=O)N2CCCCCC2)cc1S(=O)(=O)N1CCOCC1

>  <Assigned category>
0.0

$$$$
>  <Molecule>
COC(=O)N/N=C/c1cn(CCCOc2ccc(C)cc2)c2ccccc12

>  <Assigned category>
0.0

$$$$
>  <Molecule>
O=c1[nH]c(=O)c2nc3ccccc3nc2[nH]1

>  <Assigned category>
1.0

$$$$
>  <Molecule>
O=C(CC(n1cncn1)C(Cl)(Cl)Cl)c1ccc([N+](=O)[O-])cc1 (stereo not given)

>  <Assigned category>
0.0

$$$$
>  <Molecule>
CC[C@]12c3[nH]c4cc(CCC(=O)N(C)C)ccc4c3CCN1C(=O)[C@@H](CC(=O)NCCCN(C)C)C[C@@H]2C(=O)N1CCN(C(=O)c2ccco2)CC1

>  <Assigned category>
0.0

$$$$
>  <Molecule>
O=C(NCCc1ccco1)c1ccc(OCc2cn3ccccc3n2)cc1

>  <Assigned category>
0.0

$$$$
>  <Molecule>
c1ccc(-c2cc(-c3ccccc3)[nH]n2)cc1

>  <Assigned category>
0.0

$$$$
>  <Molecule>
O=C(Cc1ccc2c(c1)CCCC2)Nc1ccccc1Cl

>  <Assigned category>
0.0

$$$$
>  <Molecule>
S=c1[nH]nc(-c2cc(-c3ccccc3)n[nH]2)n1/N=C/c1c2ccccc2cc2ccccc12

>  <Assigned category>
1.0

$$$$
>  <Molecule>
CCOCN(C(=O)Cn1c(C(C)O)nc2ccccc21)c1c(C)cccc1CC (stereo not given)

>  <Assigned category>
0.0

$$$$
>  <Molecule>
C=CC[C@H](CC(=O)OC(C)(C)C)C(=O)OC[C@H]1CCCN1C(=O)[C@H](CC=C)CC(=O)N(CCO)Cc1ccccc1

>  <Assigned category>
0.0

$$$$
>  <Molecule>
CC(NS(=O)(=O)c1ccc(OCC(=O)N2CCCC2)cc1)c1ccccc1 (stereo not given)

>  <Assigned category>
0.0

$$$$
>  <Molecule>
COc1cc2ccccc2cc1C(=O)Nc1ccncc1

>  <Assigned category>
0.0

$$$$
>  <Molecule>
Cc1ccc(C(=O)Nc2ccc3c(c2)OCCO3)cc1S(=O)(=O)N1CCOCC1

>  <Assigned category>
0.0

$$$$
>  <Molecule>
CN(Cc1ccc(CNC[C@H]2O[C@@H](n3cnc4c(N)ncnc43)[C@H](O)[C@@H]2O)o1)S(C)(=O)=O

>  <Assigned category>
0.0

$$$$
>  <Molecule>
CC1CCCCC12NC(=O)N(CC(=O)N1CCN(c3ccccc3)CC1)C2=O (stereo not given)

>  <Assigned category>
0.0

$$$$
>  <Molecule>
Nc1ccc2nc3c(=O)[nH]c(=S)[nH]c3nc2c1

>  <Assigned category>
1.0

$$$$
>  <Molecule>
COc1cccc(NC(=O)COc2cccnc2[N+](=O)[O-])c1

>  <Assigned category>
0.0

$$$$
>  <Molecule>
O=C(CCNC(=O)c1ccccc1)NN=Cc1ccc(Br)o1

>  <Assigned category>
0.0

$$$$
>  <Molecule>
CN1C(=O)/C(=C\c2cc(Br)cs2)c2ccccc21

>  <Assigned category>
1.0

$$$$
>  <Molecule>
COC(=O)N/N=C/c1ccc(/C=N/NC(=O)OC)cc1

>  <Assigned category>
0.0

$$$$
>  <Molecule>
O=C(CSc1ncnc2sccc12)NC1CCS(=O)(=O)C1 (stereo not given)

>  <Assigned category>
0.0

$$$$
>  <Molecule>
COc1ccc2c(CC(=O)NNC(=O)c3ccccc3F)coc2c1

>  <Assigned category>
0.0

$$$$
>  <Molecule>
Cc1c(NC(=O)Nc2ccccc2Cl)sc(=S)n1C

>  <Assigned category>
0.0

$$$$
>  <Molecule>
COc1ccc(CNc2nc3c(c(=O)[nH]c(=O)n3C)n2Cc2ccccc2)cc1

>  <Assigned category>
0.0

$$$$
